Values compiled from BigSolDB 2.1.

conditions: in tetrachloromethane, 316.15 K
parameter.measured: solubility (mole fraction)
Form rule: numeric answer, no unit written next to it.

solubility (mole fraction) for C[C@@H]1CC[C@@]2(OC1)O[C@H]1C[C@H]3[C@@H]4CC=C5C[C@@H](O)CC[C@]5(C)[C@H]4CC[C@]3(C)[C@H]1[C@@H]2C ?
0.00676

###

conditions: in tetrachloromethane, 325.15 K
parameter.measured: solubility (mole fraction)
Kindly provide the number alone.

Record request: solubility (mole fraction) value, item C[C@@H]1CC[C@@]2(OC1)O[C@H]1C[C@H]3[C@@H]4CC=C5C[C@@H](O)CC[C@]5(C)[C@H]4CC[C@]3(C)[C@H]1[C@@H]2C
0.0095

###

details: in tetrachloromethane, 302.75 K
parameter.measured: solubility (mole fraction)
API doc: respond with a numeric literal and nothing else, no unit.

So what does the record say about solubility (mole fraction) for C[C@@H]1CC[C@@]2(OC1)O[C@H]1C[C@H]3[C@@H]4CC=C5C[C@@H](O)CC[C@]5(C)[C@H]4CC[C@]3(C)[C@H]1[C@@H]2C ?
0.00429

###

details: in tetrachloromethane, 323.65 K
parameter.measured: solubility (mole fraction)

Return reported solubility (mole fraction); argument: C[C@@H]1CC[C@@]2(OC1)O[C@H]1C[C@H]3[C@@H]4CC=C5C[C@@H](O)CC[C@]5(C)[C@H]4CC[C@]3(C)[C@H]1[C@@H]2C
0.00905

###

details: in tetrachloromethane, 311.35 K
parameter.measured: solubility (mole fraction)

So what does the record say about solubility (mole fraction) for C[C@@H]1CC[C@@]2(OC1)O[C@H]1C[C@H]3[C@@H]4CC=C5C[C@@H](O)CC[C@]5(C)[C@H]4CC[C@]3(C)[C@H]1[C@@H]2C ?
0.00578

###

settings: in tetrachloromethane, 322.35 K
parameter.measured: solubility (mole fraction)
Answer with a bare number; do not write a unit.

Quick one: solubility (mole fraction) of C[C@@H]1CC[C@@]2(OC1)O[C@H]1C[C@H]3[C@@H]4CC=C5C[C@@H](O)CC[C@]5(C)[C@H]4CC[C@]3(C)[C@H]1[C@@H]2C ?
0.00857

###

conditions: in tetrachloromethane, 318.95 K
parameter.measured: solubility (mole fraction)
I only need the number, thanks.

Report solubility (mole fraction) for C[C@@H]1CC[C@@]2(OC1)O[C@H]1C[C@H]3[C@@H]4CC=C5C[C@@H](O)CC[C@]5(C)[C@H]4CC[C@]3(C)[C@H]1[C@@H]2C please.
0.00763

###

settings: in tetrachloromethane, 291.95 K
parameter.measured: solubility (mole fraction)
Please respond with just the number, no unit label.

Query (compound): C[C@@H]1CC[C@@]2(OC1)O[C@H]1C[C@H]3[C@@H]4CC=C5C[C@@H](O)CC[C@]5(C)[C@H]4CC[C@]3(C)[C@H]1[C@@H]2C ; field requested: solubility (mole fraction)
0.00286

###

settings: in tetrachloromethane, 320.55 K
parameter.measured: solubility (mole fraction)
Please reply with the value in numeric form only.

Any idea what its solubility (mole fraction) is? The molecule is C[C@@H]1CC[C@@]2(OC1)O[C@H]1C[C@H]3[C@@H]4CC=C5C[C@@H](O)CC[C@]5(C)[C@H]4CC[C@]3(C)[C@H]1[C@@H]2C
0.00804

###

conditions: in tetrachloromethane, 297.45 K
parameter.measured: solubility (mole fraction)
Simply state the number, no unit and no words.

Entry C[C@@H]1CC[C@@]2(OC1)O[C@H]1C[C@H]3[C@@H]4CC=C5C[C@@H](O)CC[C@]5(C)[C@H]4CC[C@]3(C)[C@H]1[C@@H]2C has what solubility (mole fraction)?
0.00334

###

settings: in tetrachloromethane, 313.65 K
parameter.measured: solubility (mole fraction)
Response field accepts a number only; no unit should be typed.

What does the record list as solubility (mole fraction) for C[C@@H]1CC[C@@]2(OC1)O[C@H]1C[C@H]3[C@@H]4CC=C5C[C@@H](O)CC[C@]5(C)[C@H]4CC[C@]3(C)[C@H]1[C@@H]2C ?
0.0063

###

settings: in tetrachloromethane, 328.95 K
parameter.measured: solubility (mole fraction)
Please respond with just the number, no unit label.

Value lookup for solubility (mole fraction); key = C[C@@H]1CC[C@@]2(OC1)O[C@H]1C[C@H]3[C@@H]4CC=C5C[C@@H](O)CC[C@]5(C)[C@H]4CC[C@]3(C)[C@H]1[C@@H]2C
0.0109
